- TARGET_OR_SYSTEM: fixed activated platelets (Homo sapiens, UniProt P05106+P08514)
- Sequence (P08514 32-1039): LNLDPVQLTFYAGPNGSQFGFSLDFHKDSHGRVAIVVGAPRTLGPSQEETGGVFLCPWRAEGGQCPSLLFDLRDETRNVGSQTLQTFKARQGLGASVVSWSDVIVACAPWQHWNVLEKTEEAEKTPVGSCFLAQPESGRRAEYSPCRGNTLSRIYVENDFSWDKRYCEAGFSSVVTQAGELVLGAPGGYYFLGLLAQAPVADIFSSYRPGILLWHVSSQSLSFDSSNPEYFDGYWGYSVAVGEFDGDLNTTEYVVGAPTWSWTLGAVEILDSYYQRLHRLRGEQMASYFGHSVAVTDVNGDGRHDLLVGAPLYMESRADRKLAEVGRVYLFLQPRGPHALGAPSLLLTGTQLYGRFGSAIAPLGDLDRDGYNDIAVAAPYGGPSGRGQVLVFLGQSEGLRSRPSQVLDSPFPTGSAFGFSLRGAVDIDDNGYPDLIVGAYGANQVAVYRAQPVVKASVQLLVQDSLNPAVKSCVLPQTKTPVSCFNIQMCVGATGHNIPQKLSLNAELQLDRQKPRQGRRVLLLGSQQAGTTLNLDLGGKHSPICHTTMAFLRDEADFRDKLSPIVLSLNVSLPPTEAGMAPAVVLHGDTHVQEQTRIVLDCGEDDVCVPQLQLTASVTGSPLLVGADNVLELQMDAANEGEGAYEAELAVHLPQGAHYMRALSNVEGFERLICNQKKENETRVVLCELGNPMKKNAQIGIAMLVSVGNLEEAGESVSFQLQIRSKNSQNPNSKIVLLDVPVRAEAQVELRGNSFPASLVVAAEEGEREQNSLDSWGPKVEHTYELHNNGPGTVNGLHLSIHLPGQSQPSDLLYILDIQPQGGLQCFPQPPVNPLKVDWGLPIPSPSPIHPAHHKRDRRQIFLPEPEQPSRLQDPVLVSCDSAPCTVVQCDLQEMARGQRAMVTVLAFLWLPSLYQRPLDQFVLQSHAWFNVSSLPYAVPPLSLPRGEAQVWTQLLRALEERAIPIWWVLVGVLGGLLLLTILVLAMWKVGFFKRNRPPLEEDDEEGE
- Sequence (P05106 27-788): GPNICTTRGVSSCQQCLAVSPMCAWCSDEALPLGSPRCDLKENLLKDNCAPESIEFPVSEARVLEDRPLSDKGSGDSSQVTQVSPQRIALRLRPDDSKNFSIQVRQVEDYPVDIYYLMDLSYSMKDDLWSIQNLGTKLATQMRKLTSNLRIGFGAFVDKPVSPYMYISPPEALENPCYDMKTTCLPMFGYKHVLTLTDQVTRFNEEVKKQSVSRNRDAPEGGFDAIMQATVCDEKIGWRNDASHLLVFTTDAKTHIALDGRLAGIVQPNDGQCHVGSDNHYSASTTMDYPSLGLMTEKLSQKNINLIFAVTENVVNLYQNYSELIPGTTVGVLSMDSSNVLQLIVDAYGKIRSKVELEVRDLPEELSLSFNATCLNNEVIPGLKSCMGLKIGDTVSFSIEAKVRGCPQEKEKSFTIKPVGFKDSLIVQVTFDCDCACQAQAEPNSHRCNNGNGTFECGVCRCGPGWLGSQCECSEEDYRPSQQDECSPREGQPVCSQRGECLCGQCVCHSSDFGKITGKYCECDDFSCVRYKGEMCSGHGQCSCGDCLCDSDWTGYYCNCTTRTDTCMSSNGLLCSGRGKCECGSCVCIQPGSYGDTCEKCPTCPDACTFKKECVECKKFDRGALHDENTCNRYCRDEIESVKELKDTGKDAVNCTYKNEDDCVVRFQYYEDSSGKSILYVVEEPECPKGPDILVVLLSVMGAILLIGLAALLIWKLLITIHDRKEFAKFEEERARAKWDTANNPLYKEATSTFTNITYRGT
- PROTOCOL: Platelet Aggregation Assay (fibrinogen-mediated aggregation of fixed-activated platelets)
- Assay type: cell-based
- STATED_CONDITIONS: fixed activated platelets, human fibrinogen 250 μg/ml; read-out: Inhibition of Fibrinogen Mediated Platelet Aggregation IC50
pIC50: −log10 of the molar value.
Label condition met for high-side pIC50 (at or above 5) and condition not met for low-side pIC50 (below it).

Take a look at these entries with their results.
COC(=O)[C@H](CCCNC(=N)N)NC(=O)[C@H](CC(=O)O)NC(=O)CCCCCCCCNC(=N)N ... condition met
CC(C)[C@H](NC(=O)[C@H](CC(=O)O)NC(=O)CCCCCCCCN)C(=O)O [9-aminononanoyl-L-aspartyl-L-valine] ... condition not met

Challenge: Determine whether measured pIC50 meets or exceeds 5 for N=C(N)NCCCCCCCCC(=O)N[C@@H](CC(=O)O)C(=O)N[C@@H](CCCNC(=N)N)C(=O)N[C@@H](CCCNC(=N)N)C(=O)O
Response given: condition not met

Challenge: Determine whether measured pIC50 meets or exceeds 5 for CC[C@@H](C)[C@H](CC(=O)NCCCCNC(=N)N)NC(=O)[C@H](CC(=O)O)NC(=O)CCCCCCCCNC(=N)N
Response given: condition met

Challenge: Determine whether measured pIC50 meets or exceeds 5 for CC(C)[C@H](NC(=O)[C@H](CC(=O)O)NC(=O)CNC(=O)CCCCCn1ccnc1)C(=O)O
Response given: condition not met
